Test system: A549/ATCC NSCLC
procedureText: NCI-60 one-dose screen, 48 h
experimentalSetup: 10 µM unless noted
Compounds without any hit were thinned out: in the full panel of roughly 83,000, 20% have a hit. Active and inactive are the calls of the source. Rule for the calls: active = growth percent below 10; inactive = the rest.
The reply should be one of these categories: active, inactive

Problem: Lab log entry: COc1cc(C(=O)/C=C/c2cccc(Nc3ccnc4cc(Cl)ccc34)c2)cc(OC)c1OC — outcome as called in the assay?
Result: active

Problem: Lab log entry: C/C(=C\CCc1ccsc1)CC/C=C(\C)CCCN1CCSCC1 — outcome as called in the assay?
Result: inactive

Problem: Lab log entry: Cc1nn(-c2ccccc2)c2nc(N)c(C3=NCCO3)nc12 — outcome as called in the assay?
Result: inactive

Problem: Lab log entry: N#CC1c2ccccc2C=CN1C(=O)N(c1ccccc1)c1ccccc1 (stereo not given) — outcome as called in the assay?
Result: inactive

Problem: Lab log entry: O=C1/C(=C/c2cccc(Cl)c2)CCc2ccccc21 — outcome as called in the assay?
Result: inactive

Problem: Lab log entry: c1cc[n+](Cc2ccnc3ccccc23)cc1 — outcome as called in the assay?
Result: inactive

Problem: Lab log entry: COC(=O)[C@H](Cc1cn(C)cn1)NC(=O)[C@H](Cc1ccccc1)NC(=O)Nc1cc(C(F)(F)F)cc(C(F)(F)F)c1 — outcome as called in the assay?
Result: active

Problem: Lab log entry: COc1c(O)cc2c(c1CC=C(C)C)OC(=O)c1c(cc(O)c(CC=C(C)C)c1O)O2 — outcome as called in the assay?
Result: inactive

Problem: Lab log entry: O=CN1N=C(c2ccc(Cl)cc2)CC1c1cccc(Nc2ccnc3cc(Cl)ccc23)c1 (stereo not given) — outcome as called in the assay?
Result: inactive

Problem: Lab log entry: Nc1nc(Nc2ccccc2SSc2ccccc2Nc2nc(N)nc(-c3cccc(Cl)c3)n2)nc(-c2cccc(Cl)c2)n1 — outcome as called in the assay?
Result: active

Problem: Lab log entry: CCN(CC)c1ccc(N=C2C=CC(=O)C=C2NC(C)=O)cc1 — outcome as called in the assay?
Result: inactive

Problem: Lab log entry: O=C1c2cc3c(cc2-c2c1c1ccc(Cl)cc1c(=O)n2CCCNCCO)OCO3 — outcome as called in the assay?
Result: active

Problem: Lab log entry: Cc1cccc2nnc(-c3ccccc3)n12 — outcome as called in the assay?
Result: inactive

Problem: Lab log entry: Cc1[nH]c(=O)[nH]c(=O)c1CCSSCCc1c(C)[nH]c(=O)[nH]c1=O — outcome as called in the assay?
Result: inactive

Problem: Lab log entry: C[C@H](C(=O)N[C@@H](Cc1ccc(-c2ccccc2)cc1)C(=O)NC1CC(C)(C)NC(C)(C)C1)c1ccc(-c2ccccc2)c(F)c1 — outcome as called in the assay?
Result: active

Problem: Lab log entry: COc1cc(/C=C/C(=O)c2c(C)n([O-])c3ccccc3[n+]2=O)cc(OC)c1OC — outcome as called in the assay?
Result: inactive

Problem: Lab log entry: Clc1ccc(C2c3ccccc3-c3nccn32)c(Cl)c1 (stereo not given) — outcome as called in the assay?
Result: inactive

Problem: Lab log entry: CCN(CC)CCNCC(=O)Oc1ccc(/C=C/C(=O)CC(=O)/C=C/c2ccc(OC(=O)CNCCN(CC)CC)c(OC)c2)cc1OC — outcome as called in the assay?
Result: inactive

Problem: Lab log entry: COc1ccc(CC(=O)Nc2nn3c(-c4cc(C(F)(F)F)cc(C(F)(F)F)c4)nnc3s2)cc1 — outcome as called in the assay?
Result: inactive

Problem: Lab log entry: O=C1CSC(c2ccccc2O)N1c1nnc(Cn2ccnc2)o1 (stereo not given) — outcome as called in the assay?
Result: inactive

----------
Tested on: UO-31 renal
procedureText: NCI-60 one-dose screen, 48 h
experimentalSetup: 10 µM unless noted
Compounds without any hit were thinned out: in the full panel of roughly 83,000, 20% have a hit. The source made the active and inactive calls. The calls were made as follows: active = growth percent below 10; inactive = the rest.
The reply should be one of these categories: True for active, False for inactive

Problem: Lab log entry: COc1ccc(-c2ccc(O)c(C(=O)/C=C/c3cc(OC)c(OC)c(OC)c3)c2)cc1 — outcome as called in the assay?
Result: False

Problem: Lab log entry: Cc1ccc(C(=O)Cc2ccccc2)c(O)c1 — outcome as called in the assay?
Result: False

Problem: Lab log entry: CC1=C([Se]CC(OC(=O)[C@@H](CSSC(C)(C)C)NC(=O)C(C)(C)C)C(=O)NCCCCCC(=O)OCc2ccccc2)C(=O)c2ccccc2C1=O (stereo not given in full) — outcome as called in the assay?
Result: True

Problem: Lab log entry: COc1cc2c(cc1OC)C(=O)/C(=C/c1cccc(OCC(=O)c3ccccc3)c1)C2 — outcome as called in the assay?
Result: True

Problem: Lab log entry: CC1Cc2ccccc2N1C(=O)c1ccc(C(=O)c2ccccc2)cc1 (stereo not given) — outcome as called in the assay?
Result: False

Problem: Lab log entry: COc1cccc(C=Nc2cc(C(C)C)c(O)cc2C)c1O — outcome as called in the assay?
Result: False

Problem: Lab log entry: O=Nc1c2cccnc2n2nnc3ccc(Cl)cc3c12 — outcome as called in the assay?
Result: True

Problem: Lab log entry: COc1ccc(-c2cc(-c3cccnc3)nc(S(=O)(=O)CC(=O)Nc3ccc(C)cc3)c2C#N)cc1OC — outcome as called in the assay?
Result: False

Problem: Lab log entry: Cc1cc(Cl)ccc1Nc1nc(C(F)(F)F)ccc1C(=O)N/N=C/c1ccc(Cl)cc1 — outcome as called in the assay?
Result: True

Problem: Lab log entry: COC(=O)CC1=C(c2ccc([N+](=O)[O-])cc2)CCC1=O — outcome as called in the assay?
Result: False

----------
System: BT-549 breast
procedureText: NCI-60 one-dose screen, 48 h (100 = growth as untreated, 0 = no growth, -100 = all killed)
experimentalSetup: 10 µM unless noted
Compounds without any hit were thinned out: in the full panel of roughly 83,000, 20% have a hit.
measure: growth (%)
Write the answer as a number in %, unit excluded.

Problem: # growth lookup, item O=c1[nH]c(N2CCC(Cc3ccccc3)CC2)nc2sc3c(c12)CCCC3
Result: 109

Problem: # growth lookup, item COc1ccc(N2CCN(CC(=O)N3CCN(c4nnc(-c5ccccc5)c(-c5ccccc5)n4)CC3)CC2)cc1
Result: 47.8

Problem: # growth lookup, item COc1ccc(C(=O)COc2cccc(/C=C3\CSc4ccc(Cl)cc4C3=O)c2)cc1
Result: 42.5

Problem: # growth lookup, item Cn1c(=O)c2[nH]c(=S)n(Cc3ccccc3)c2n(C)c1=O
Result: 106

Problem: # growth lookup, item CCSc1nc(-c2ccc(F)cc2)c(C#N)c(=O)[nH]1
Result: 105

Problem: # growth lookup, item CC1C(C)N(C(=O)CCl)c2ccccc2N1C(=O)CCl (stereo not given)
Result: -86.4

Problem: # growth lookup, item COc1cnc2c(c1)C(=O)c1c-2n(CCCNC(C)C)c(=O)c2cc(F)ccc12
Result: -17.9

Problem: # growth lookup, item CCNCCCn1c2c(c3ccc(F)cc3c1=O)C(=O)c1cc(OC)cnc1-2
Result: -22.7

Problem: # growth lookup, item CC(=O)Nc1ccc(C(=O)COc2cccc(/C=C3\CCc4ccccc4C3=O)c2)cc1
Result: 66

Problem: # growth lookup, item Cn1ccnc1C(=O)/C=C/c1ccc(C(=O)Nc2nc3ccccc3[nH]2)cc1
Result: 5.05

----------
For each entry below, report its growth value.
Tested on: TK-10 renal
procedureText: NCI-60 one-dose screen, 48 h (100 = growth as untreated, 0 = no growth, -100 = all killed)
experimentalSetup: 10 µM unless noted
Compounds without any hit were thinned out: in the full panel of roughly 83,000, 20% have a hit. Calls of active or inactive are those of the source. How the source made its calls: active means growth percent below 10; inactive means the rest.

Problem: # growth lookup, item O=C(O)C1C(c2ccccc2)c2ccccc2C(O)C1CO (stereo unspecified)
Result: 102% (inactive)

Problem: # growth lookup, item COc1ccc(-c2nnc3c4[nH]cnc4ncn23)c(OC)c1
Result: 10.8% (inactive)

Problem: # growth lookup, item COc1ccc(N2CCN(CC(=O)N3CCN(c4nnc(-c5ccccc5)c(-c5ccccc5)n4)CC3)CC2)cc1
Result: 64.7% (inactive)

Problem: # growth lookup, item Oc1c(N=Nc2nn[nH]n2)ccc2ccccc12
Result: 132% (inactive)

Problem: # growth lookup, item O=C1N=C(N2CCOCC2)S/C1=C\c1cn(-c2ccccc2)nc1-c1ccccc1
Result: 57.1% (inactive)

Problem: # growth lookup, item Cc1sc2nc3c4ccccc4c(NCCCN(C)C)nn3c(=O)c2c1C
Result: 78% (inactive)

Problem: # growth lookup, item CCOC(=O)Nc1cc(-c2ccc(C)c(NS(C)(=O)=O)c2)nn2c(C)nnc12
Result: -3.12% (active)

Problem: # growth lookup, item C[C@@H]1C[C@@H]([C@@H](CC2CC(=O)NC(=O)C2)OC(=O)CC(=O)c2ccccc2)C(=O)[C@@H](C)C1
Result: 3.61% (active)

Problem: # growth lookup, item C[C@]12CC[C@H](O)CC1=CC[C@@H]1[C@@H]2CC[C@]2(C)C(c3cccnc3)=CC[C@@H]12
Result: 93.6% (inactive)

Problem: # growth lookup, item COc1cc(C2CC(C3C(=O)N(C)C(=O)N(C)C3=O)=NN2C=O)cc(OC)c1OC (stereo unspecified)
Result: 87.4% (inactive)

Problem: # growth lookup, item O=C(NCCNC(=O)Oc1cccc2ccccc12)Oc1cccc2ccccc12
Result: 92.3% (inactive)

Problem: # growth lookup, item NS(=O)(=O)c1ccc(-n2ncc3c(SCc4ccccc4)ncnc32)cc1
Result: 89.4% (inactive)

Problem: # growth lookup, item O=C(Nc1nc(-c2ccc(Cl)cc2)cs1)c1cc(-c2ccc(Br)cc2)nc2ccc(Cl)cc12
Result: 130% (inactive)

Problem: # growth lookup, item CCCCN1c2nc3ccccc3cc2Sc2cc3ccccc3nc21
Result: 108% (inactive)

Problem: # growth lookup, item O=C(Oc1ccccc1)C(Br)C(Br)c1ccccc1 (stereo unspecified)
Result: 83% (inactive)

Problem: # growth lookup, item N[C@H](CS)C(=O)O
Result: 97.3% (inactive)

Problem: # growth lookup, item O=C(COc1cccc(/C=C2\Oc3ccc4ccccc4c3C2=O)c1)c1ccc(Cl)cc1
Result: 115% (inactive)

Problem: # growth lookup, item [N-]=[N+]=NCc1cccc(/C(O)=C/C(=O)C(=O)O)c1
Result: 107% (inactive)

Problem: # growth lookup, item CC(=O)N1N=C(c2ccc(Nc3nc(NCCO)nc(NCCO)n3)cc2)CC1c1ccc(Cl)cc1 (stereo unspecified)
Result: 83.3% (inactive)

Problem: # growth lookup, item O=C(COc1ccc(/C=C2\Oc3ccc4ccccc4c3C2=O)cc1)c1ccc(Cl)cc1
Result: 114% (inactive)

Problem: # growth lookup, item COc1c(Br)cc(C(c2cc(Br)c(OC)c(Br)c2)c2ccccc2C(=O)O)cc1Br
Result: 106% (inactive)
